Sourced from paper PMC6850587

target: recombinant human μ-opioid receptor (Homo sapiens, UniProt P35372); assay: radioligand displacement, [3H]-DAMGO
Sequence (P35372 whole entry): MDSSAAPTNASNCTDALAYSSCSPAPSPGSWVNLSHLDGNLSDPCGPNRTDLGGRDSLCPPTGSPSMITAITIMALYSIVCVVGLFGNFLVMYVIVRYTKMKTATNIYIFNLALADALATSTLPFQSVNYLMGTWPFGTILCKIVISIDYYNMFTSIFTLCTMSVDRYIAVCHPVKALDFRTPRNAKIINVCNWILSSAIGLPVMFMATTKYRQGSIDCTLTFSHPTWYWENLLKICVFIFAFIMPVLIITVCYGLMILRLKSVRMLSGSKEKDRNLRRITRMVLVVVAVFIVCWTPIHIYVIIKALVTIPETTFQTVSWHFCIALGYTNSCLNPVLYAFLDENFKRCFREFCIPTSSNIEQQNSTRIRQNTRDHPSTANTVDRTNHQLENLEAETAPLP
Observation Type: Ki (nM)
Your answer is read as nM, so omit the unit and give the number.

Hello, please tell me recorded Ki for this one: CC(C)(NC(=O)C1=C(O)[C@@H]2Oc3c(O)ccc4c3[C@@]23CCN(CC2CC2)[C@H](C4)[C@]3(O)C1)c1nc(-c2ccccc2)no1 [naldemedine]
0.34

---

molecular target: rat recombinant δ-opioid receptor (Rattus norvegicus, UniProt P33533); assay: radioligand displacement, [3H]-DADLE
Sequence (P33533 whole entry): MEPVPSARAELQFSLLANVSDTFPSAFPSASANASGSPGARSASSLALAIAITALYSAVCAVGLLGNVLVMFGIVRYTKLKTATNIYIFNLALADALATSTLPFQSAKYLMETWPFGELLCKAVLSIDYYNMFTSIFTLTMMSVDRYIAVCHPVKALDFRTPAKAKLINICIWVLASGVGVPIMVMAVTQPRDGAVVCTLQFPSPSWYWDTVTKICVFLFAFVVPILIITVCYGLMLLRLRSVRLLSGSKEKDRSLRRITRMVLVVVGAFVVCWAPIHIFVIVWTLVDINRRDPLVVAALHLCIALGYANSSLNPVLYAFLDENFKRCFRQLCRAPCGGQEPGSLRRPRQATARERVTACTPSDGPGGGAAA
Observation Type: Ki (nM)
Your answer is read as nM, so omit the unit and give the number.

Hello, please tell me recorded Ki for this one: CC(C)(NC(=O)C1=C(O)[C@@H]2Oc3c(O)ccc4c3[C@@]23CCN(CC2CC2)[C@H](C4)[C@]3(O)C1)c1nc(-c2ccccc2)no1 [naldemedine]
0.96
